Reported IC50 at 72 h values for the following compounds.
# protocol.text: Cytotoxicity assay, CellTiter-Glo cell viability
# Type: cell-based
# condition.context: African green monkey; Vero cells, 72 hours; read-out: Cytotoxicity IC50
A number alone suffices; assume µM.

# annotated cases, reported IC50 at 72 h shown
1) Cc1ccc(NC(=O)N[C@@H](Cc2ccccc2)C(=O)N[C@H]2COC(=O)[C@@H]3C[C@@H](C)CN3C(=O)[C@H](C)NC(=O)[C@@H]3CCCCN3C(=O)[C@@H]3CCCN3C2=O)cc1; 74
2) C[C@H]1C[C@H]2C(=O)O[C@@H](C)[C@H](NC(=O)[C@H](Cc3cc(F)cc(F)c3)NC(=O)Nc3ccc(OC(F)(F)F)cc3)C(=O)N3CCC[C@H]3C(=O)N3CCCC[C@H]3C(=O)N[C@@H](C)C(=O)N2C1; 52.3
3) C[C@@H]1C[C@H]2C(=O)OC[C@H](NC(=O)[C@H](Cc3ccccc3)NC(=O)Nc3ccc4ccn(C)c4c3)C(=O)N3CCC[C@H]3C(=O)N3CCCC[C@H]3C(=O)N[C@@H](C)C(=O)N2C1; 90

Field: next compound
Request: Look up IC50 at 72 h: Cc1ccc(NC(=O)N[C@@H](Cc2cc(F)cc(F)c2)C(=O)N[C@@H]2C(=O)N3CCCC3C(=O)N3CCOCC3C(=O)N[C@@H](C)C(=O)N3C[C@@H](C)CC3C(=O)O[C@H]2C)cc1 (some centres unmarked)
Response: 41

====

# measured.target: Sa-ClpP (Staphylococcus aureus, UniProt Q2G036)
# Construct: made in house; host or cells: E. coli BL21 (DE3)
# Sequence (Q2G036 whole entry): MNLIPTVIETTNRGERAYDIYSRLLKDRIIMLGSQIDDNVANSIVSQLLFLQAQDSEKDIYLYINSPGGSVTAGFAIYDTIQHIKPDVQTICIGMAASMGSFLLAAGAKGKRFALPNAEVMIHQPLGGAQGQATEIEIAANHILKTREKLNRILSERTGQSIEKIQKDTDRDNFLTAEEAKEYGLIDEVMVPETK
# protocol.text: ADEP displacement fluorescence polarization assay
# Format: binding, S. aureus
# condition.context: 1 μM Sa-ClpP, 50 nM FP probe ADEP 2591; read-out: ADEP Displacement IC50
The entries below are paired with their reported pIC50.
The value called pIC50 is obtained by taking minus log10 of the concentration in mol/L.

Take a look at these entries with their results.
1) C[C@H]1C[C@H]2C(=O)O[C@@H](C)[C@H](NC(=O)[C@H](Cc3cc(F)cc(F)c3)NC(=O)Nc3ccc(C(F)(F)F)cc3)C(=O)N3CCC[C@H]3C(=O)N3CCCC[C@H]3C(=O)N[C@@H](C)C(=O)N2C1; 5.24
2) C[C@@H]1C[C@H]2C(=O)OC[C@H](NC(=O)[C@H](Cc3ccccc3)NC(=O)Nc3ccc(Cl)cc3)C(=O)N3CCC[C@H]3C(=O)N3CCCC[C@H]3C(=O)N[C@@H](C)C(=O)N2C1; 5.03

Request: Report pIC50 for "C[C@@H]1C[C@H]2C(=O)OC[C@H](NC(=O)[C@H](Cc3ccccc3)NC(=O)Nc3ccccc3)C(=O)N3CCC[C@H]3C(=O)N3CCCC[C@H]3C(=O)N[C@@H](C)C(=O)N2C1" please.
Response: 5.17

Request: Item under review: "C[C@@H]1C[C@H]2C(=O)OC[C@H](NC(=O)[C@H](Cc3ccccc3)NC(=O)Nc3ccc4ccn(C)c4c3)C(=O)N3CCC[C@H]3C(=O)N3CCCC[C@H]3C(=O)N[C@@H](C)C(=O)N2C1" . Reported pIC50?
Response: 5.17

Request: For the compound shown here, "C[C@@H]1C[C@H]2C(=O)OC[C@H](NC(=O)[C@H](Cc3ccccc3)NC(=O)Nc3ccc(OC(F)(F)F)cc3)C(=O)N3CCC[C@H]3C(=O)N3CCCC[C@H]3C(=O)N[C@@H](C)C(=O)N2C1" , give the reported pIC50.
Response: 5.12

Request: Recorded pIC50 of Cc1ccc(NC(=O)N[C@@H](Cc2ccccc2)C(=O)N[C@H]2COC(=O)C3C[C@H](C)CN3C(=O)[C@H](C)NC(=O)C3CCCCN3C(=O)C3CCCN3C2=O)cc1 (stereo partly drawn) , please.
Response: 5.18

Request: Quick one: pIC50 of Cc1ccc(NC(=O)N[C@@H](Cc2cc(F)cc(F)c2)C(=O)N[C@@H]2C(=O)N3CCCC3C(=O)N3CCOCC3C(=O)N[C@@H](C)C(=O)N3C[C@@H](C)CC3C(=O)O[C@H]2C)cc1 (stereo partly drawn) ?
Response: 5.25

Request: Sample "Cc1ccc(NC(=O)N[C@@H](Cc2ccccc2)C(=O)N[C@H]2COC(=O)[C@@H]3C[C@@H](C)CN3C(=O)[C@H](C)NC(=O)[C@@H]3CCCCN3C(=O)[C@@H]3CCCN3C2=O)cc1" — what was its pIC50?
Response: 5.15

Request: Query: pIC50; subject: "C[C@@H]1C[C@H]2C(=O)OC[C@H](NC(=O)[C@H](Cc3ccccc3)NC(=O)Nc3ccc4c(c3)CCN4C)C(=O)N3CCC[C@H]3C(=O)N3CCCC[C@H]3C(=O)N[C@@H](C)C(=O)N2C1"
Response: 5.35
